# Measured on: MOZ-KAT6A (Homo sapiens, UniProt Q92794, A567V)
# Construct: encoding amino acid residues 507 to 778 (Uniprot Q92794-1) of human KAT6A; made in house; host or cells: E. coli BL21 DE3
# Sequence (Q92794 507-778 A567V limits assumed): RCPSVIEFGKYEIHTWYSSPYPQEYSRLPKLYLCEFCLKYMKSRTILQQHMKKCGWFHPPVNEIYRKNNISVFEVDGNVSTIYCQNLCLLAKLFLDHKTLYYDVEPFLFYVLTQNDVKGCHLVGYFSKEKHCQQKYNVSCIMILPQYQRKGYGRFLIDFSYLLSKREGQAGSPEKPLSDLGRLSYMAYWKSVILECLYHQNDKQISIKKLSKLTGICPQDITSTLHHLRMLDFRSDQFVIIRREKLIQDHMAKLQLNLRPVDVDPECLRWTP
# Method: Revised Acetyltransferase Biochemical Assay, KAT6A
# Measurement parameters: Table 8 (MOZ-KAT6A), 1 μM Acetyl coenzyme A
# Lookup of reported IC50 keyed by entry
Hi! Could you send only the number? It should be in nM, unit omitted.

• COc1cccc(C(CNC(=O)C2=Nc3ccc(Br)cc3S(=O)(=O)N2)c2ncco2)c1 (stereo not drawn) = 41

# IC50 lookup, item O=C(NCC(c1ccccn1)n1cccn1)C1=Nc2ccc(Br)cc2S(=O)(=O)N1 (stereo not drawn)
6830

Also, Cc1cccc(C(CNC(=O)C2=Nc3ccc(I)cc3S(=O)(=O)N2)c2ncco2)c1 (stereo not drawn) please.
13

* * *

# Lookup of reported log10(IC50) keyed by entry
# Measured on: HBO-KAT7 (Homo sapiens)
# Construct: encoding amino acid residues 325 to 611 (Uniprot 095251-1) of human KAT7; made in house; host or cells: E. coli BL21 DE3 RIL
# Sequence (O95251 with tags, fused parts or gaps): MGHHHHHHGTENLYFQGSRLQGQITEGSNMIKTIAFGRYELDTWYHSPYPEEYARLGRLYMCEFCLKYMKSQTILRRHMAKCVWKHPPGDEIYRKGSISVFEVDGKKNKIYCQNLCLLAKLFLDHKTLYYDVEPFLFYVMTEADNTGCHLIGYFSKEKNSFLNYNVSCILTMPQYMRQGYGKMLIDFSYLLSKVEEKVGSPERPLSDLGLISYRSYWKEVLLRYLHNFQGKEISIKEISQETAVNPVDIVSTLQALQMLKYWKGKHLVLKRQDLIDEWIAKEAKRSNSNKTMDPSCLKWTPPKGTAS
# Method: Acetyltransferase biochemical assay (AlphaScreen), KAT7
# Measurement parameters: Table 3 (HBO-KAT7); 0.4 μM Acetyl coenzyme A, histone H3.1, 40 nM enzyme
Note: values are log10 of IC50 expressed in nM.

• O=C(NCC(c1ccc(F)cc1)c1ccccn1)C1=Nc2ccc(Br)cc2S(=O)(=O)N1 (centres unmarked) = 2.28

# log10(IC50) lookup, item O=C(NCC(c1ccccc1)c1ccccn1)C1=Nc2ccc(Br)cc2S(=O)(=O)N1 (centres unmarked)
1.71

Also, O=C(NCC(O)c1ccccc1OCc1ccccc1)C1=Nc2ccc(I)cc2S(=O)(=O)N1 (centres unmarked) please.
4.27

Also, CNC(=O)c1ccc2c(c1)S(=O)(=O)NC(C(=O)NCC(c1ccccc1)c1ncco1)=N2 (centres unmarked) please.
3.67

* * *

# Lookup of reported IC50 keyed by entry
# Measured on: QKF-KAT6B (Homo sapiens, UniProt Q8WYB5)
# Construct: purchased SignalChem K315-381BG
# Sequence (Q8WYB5 whole entry): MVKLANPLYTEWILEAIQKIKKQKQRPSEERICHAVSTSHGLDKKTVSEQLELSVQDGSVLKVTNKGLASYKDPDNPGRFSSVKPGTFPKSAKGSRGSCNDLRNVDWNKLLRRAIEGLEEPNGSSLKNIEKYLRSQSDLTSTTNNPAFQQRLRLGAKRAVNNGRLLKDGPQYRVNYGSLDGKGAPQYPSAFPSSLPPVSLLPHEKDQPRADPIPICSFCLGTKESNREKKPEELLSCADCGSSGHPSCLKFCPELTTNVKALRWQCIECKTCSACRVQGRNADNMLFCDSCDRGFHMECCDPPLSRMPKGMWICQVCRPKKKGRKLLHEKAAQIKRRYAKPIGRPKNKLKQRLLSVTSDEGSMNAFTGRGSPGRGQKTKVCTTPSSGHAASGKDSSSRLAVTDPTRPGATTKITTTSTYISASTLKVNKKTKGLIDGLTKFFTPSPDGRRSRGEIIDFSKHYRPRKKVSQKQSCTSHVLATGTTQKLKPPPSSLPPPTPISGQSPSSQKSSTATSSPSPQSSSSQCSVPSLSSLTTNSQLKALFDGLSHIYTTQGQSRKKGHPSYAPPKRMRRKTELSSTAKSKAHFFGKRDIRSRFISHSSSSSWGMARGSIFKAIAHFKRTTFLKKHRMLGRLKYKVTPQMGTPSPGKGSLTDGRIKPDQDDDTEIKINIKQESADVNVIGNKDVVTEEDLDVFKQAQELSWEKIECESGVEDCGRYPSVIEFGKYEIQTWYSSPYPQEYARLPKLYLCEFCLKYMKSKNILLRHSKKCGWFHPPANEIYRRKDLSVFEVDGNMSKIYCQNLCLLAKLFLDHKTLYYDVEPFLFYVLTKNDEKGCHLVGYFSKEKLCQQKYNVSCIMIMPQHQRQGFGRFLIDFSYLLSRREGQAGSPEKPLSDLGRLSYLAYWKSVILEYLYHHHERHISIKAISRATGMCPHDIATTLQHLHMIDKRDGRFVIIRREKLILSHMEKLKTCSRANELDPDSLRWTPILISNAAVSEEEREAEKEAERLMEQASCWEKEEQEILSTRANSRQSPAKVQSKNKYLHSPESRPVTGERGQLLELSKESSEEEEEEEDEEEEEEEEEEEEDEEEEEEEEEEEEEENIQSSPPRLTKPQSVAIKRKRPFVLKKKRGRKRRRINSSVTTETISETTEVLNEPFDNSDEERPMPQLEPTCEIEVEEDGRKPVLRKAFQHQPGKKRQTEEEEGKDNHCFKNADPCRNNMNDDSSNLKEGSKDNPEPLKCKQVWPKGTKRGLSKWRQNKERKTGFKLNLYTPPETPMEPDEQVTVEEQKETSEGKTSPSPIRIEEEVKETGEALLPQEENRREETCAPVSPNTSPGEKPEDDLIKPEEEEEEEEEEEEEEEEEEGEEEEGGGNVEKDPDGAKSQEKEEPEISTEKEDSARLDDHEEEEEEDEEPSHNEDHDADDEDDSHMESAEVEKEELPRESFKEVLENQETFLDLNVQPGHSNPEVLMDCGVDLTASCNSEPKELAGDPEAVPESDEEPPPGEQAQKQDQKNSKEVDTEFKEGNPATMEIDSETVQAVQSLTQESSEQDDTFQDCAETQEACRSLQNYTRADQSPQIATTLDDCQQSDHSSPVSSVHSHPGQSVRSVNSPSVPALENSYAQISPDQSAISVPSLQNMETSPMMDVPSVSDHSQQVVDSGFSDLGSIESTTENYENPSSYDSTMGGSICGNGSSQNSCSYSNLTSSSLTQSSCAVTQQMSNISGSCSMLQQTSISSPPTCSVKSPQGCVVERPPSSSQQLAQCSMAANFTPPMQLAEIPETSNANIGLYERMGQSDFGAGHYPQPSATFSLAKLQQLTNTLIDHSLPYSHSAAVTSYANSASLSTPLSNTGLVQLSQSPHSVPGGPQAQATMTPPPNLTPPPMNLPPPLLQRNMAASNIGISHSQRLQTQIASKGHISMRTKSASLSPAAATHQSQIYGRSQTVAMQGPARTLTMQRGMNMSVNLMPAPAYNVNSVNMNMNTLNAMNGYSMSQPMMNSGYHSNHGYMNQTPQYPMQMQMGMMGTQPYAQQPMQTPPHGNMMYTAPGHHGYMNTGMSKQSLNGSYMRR
# Method: Revised Acetyltransferase Biochemical Assay, KAT6B
# Measurement parameters: 8 nM KAT6B, 1 μM AcCoA, 100 nM histone H3.1, 90 min
Hi! Could you send only the number? It should be in nM, unit omitted.

* O=C(NCCc1ccccc1OC(F)F)C1=Nc2ccc(I)cc2S(=O)(=O)N1 | 350

The record that follows has no IC50 shown yet.
# IC50 lookup, item O=C(NCC(c1cccc(O)c1)c1ncco1)C1=Nc2ccc(I)cc2S(=O)(=O)N1 (stereo not shown)
65

* * *

# Measured on: TIP60-KAT5 (Homo sapiens, UniProt Q92993)
# Construct: encoding amino acid residues 2 to 461 (Uniprot Q92993-2) of human KAT5 isoform; made in house; host or cells: E. coli BL21 DE3
# Sequence (Q92993 2-461 isoform Q92993-2): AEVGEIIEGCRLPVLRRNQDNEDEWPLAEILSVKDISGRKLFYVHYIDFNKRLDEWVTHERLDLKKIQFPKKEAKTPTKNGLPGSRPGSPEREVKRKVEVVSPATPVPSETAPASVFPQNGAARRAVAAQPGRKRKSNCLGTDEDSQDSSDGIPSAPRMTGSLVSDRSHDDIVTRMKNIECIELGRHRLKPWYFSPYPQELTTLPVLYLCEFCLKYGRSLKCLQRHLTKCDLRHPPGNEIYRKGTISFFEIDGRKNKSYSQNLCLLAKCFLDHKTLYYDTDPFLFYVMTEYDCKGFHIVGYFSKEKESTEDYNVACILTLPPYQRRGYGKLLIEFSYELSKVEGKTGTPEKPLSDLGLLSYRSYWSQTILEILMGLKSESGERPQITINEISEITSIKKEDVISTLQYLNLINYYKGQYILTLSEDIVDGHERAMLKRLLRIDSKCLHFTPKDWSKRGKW
# Method: Revised Acetyltransferase Biochemical Assay, KAT5
# Measurement parameters: 10 nM KAT5, 1 μM AcCoA, 100 nM histone H4, 90 min
# Lookup of reported pIC50 keyed by entry
The scale used: pIC50 is minus the common logarithm of the concentration in molar units.

Take a look at these entries with their results.
* Cc1noc(C(CNC(=O)C2=Nc3ccc(I)cc3S(=O)(=O)N2)c2ccccc2)n1 (stereo not shown) [Example 56] | 7.21
* Cc1ccc(C(CNC(=O)C2=Nc3ccc(Cl)cc3S(=O)(=O)N2)c2ncco2)cc1 (stereo not shown) [Example 170] | 4.88

The record that follows has no pIC50 shown yet.
# pIC50 lookup, item COc1cccc(C(CNC(=O)C2=Nc3ccc(Cl)cc3S(=O)(=O)N2)c2ncco2)c1 (stereo not shown) [Example 176]
5.29
